# assayNotes: Cytotoxicity against mammalian cells (MTT assay)
# measurementSetup: mouse
endpointName: CC50 at 48 h

Query: Given the compound "C=CCc1ccc(OC)c(OC)c1" , write its reported CC50 at 48 h.
Reply: > 200 µM

====

# System: Leishmania (L.) infantum intracellular amastigotes
# assayNotes: Activity against L. (L.) infantum intracellular amastigotes in mouse peritoneal macrophages (Giemsa counting, parasitic index)
# Format: cell-based
# measurementSetup: Peritoneal macrophage, 96 h, intracellular amastigotes in BALB/c peritoneal macrophages, 96 h incubation; NA = not active; maximum tested concentration 100 μM; read-out: EC50 Leishmania (L.) infantum Amastigote (95% CI)
Catalogue of molecules with associated EC50
Hi! Could you send only the number? It should be in µM, unit omitted.

Reference set, count: 2
INSERT INTO measurements (molecule, unitdescriptor, testresult) VALUES
  ('C=CCc1ccc(Oc2cc([C@H](O)C=C)cc(OC)c2OC)c(OC)c1', 'µM', 67.7),
  ('C=CCc1cc(OC)c(OC)c(-c2cc(CC=C)cc(OC)c2OC)c1 [Compound 6, dehydrodieugenol dimethyl ether]', 'µM', 13.7);

Query: Supply EC50 value. Item: CCCCCCCCCCCCCCCCOP(=O)([O-])OCC[N+](C)(C)C [miltefosine, reference compound]
Reply: 16.4

====

# assayNotes: Cytotoxicity against mammalian cells (MTT assay)
# measurementSetup: mouse, NCTC clone L-929 cells
endpointName: CC50 at 48 h

Consider the following illustrative entries.
INSERT INTO measurements (molecule, testresult) VALUES
  ('C=CCc1cc(OC)c(OC)c(-c2cc(CC=C)cc(OC)c2OC)c1 [Compound 6, dehydrodieugenol dimethyl ether]', '> 200 µM'),
  ('C=CCc1cc(OC)c(O)c(-c2cc(CC=C)cc(OC)c2O)c1', '58.1 µM');

Query: Quick one: give measured CC50 at 48 h for "C=CCc1ccc(Oc2cc([C@H](O)C=C)cc(OC)c2O)c(OC)c1"
Reply: > 200 µM

Query: Give the measured CC50 at 48 h for CCCCCCCCCCCCCCCCOP(=O)([O-])OCC[N+](C)(C)C [miltefosine, reference compound]
Reply: 122 µM

Query: Provide only the value of recorded CC50 at 48 h for "C=CCc1ccc(Oc2cc([C@H](O)C=C)cc(OC)c2OC)c(OC)c1"
Reply: > 200 µM

Query: Return CC50 at 48 h (reported value) for this molecule: C=CCc1ccc(O)c(OC)c1 [eugenol, reference compound]
Reply: > 200 µM
